Where these numbers come from: the supplement of paper PMC5579334

Hi there, I'd appreciate the recorded % inhibition for every entry that follows.
tested on: YST-1; experiment: % inhibition of CellTiter-Glo viability at highest tested concentration (72 h), relative to DMSO and benzethonium chloride controls; higher = more inhibition
Please answer using the number first and the unit second.

Record excerpt, results attached:
molecule | endpointValue
Cc1nn(C)c(COc2ccc(N3CCN(S(=O)(=O)N(C)C)CC3)cc2)c1-c1cccc2c(CCCOc3cccc4ccccc34)c(C(=O)O)n(CCN3CCOCC3)c12 (max concentration tested 50000 nM) | 101%
Cc1ccc(-c2cc(C(F)(F)F)nn2-c2ccc(S(N)(=O)=O)cc2)cc1 [Celecoxib] (max concentration tested 10000 nM) | 4.7%
CCn1cc(-c2ccnc3[nH]c(-c4cccc(CN(C)C)c4)cc23)c(-c2ccc(NC(=O)N(C)C)cc2)n1 (max concentration tested 1000 nM) | 33.4%
CC(=O)c1c(C)c2cnc(Nc3ccc(N4CCNCC4)cn3)nc2n(C2CCCC2)c1=O [Palbociclib] (max concentration tested 10000 nM) | 44.5%
O=C(CCBr)N1CCN(C(=O)CCBr)CC1 [Pipobroman] (max concentration tested 10000 nM) | 4.98%

Turning now to a further molecule:
(Q) What % inhibition value was documented for this molecule, COc1cc(C(=O)NC2CCN(C)CC2)c(F)cc1Nc1ncc2c(n1)N(C1CCCC1)CC(F)(F)C(=O)N2C [TAK-960] (max concentration tested 2500 nM) ?
(A) 2.44%

====

Hi there, I'd appreciate the recorded relative IC50 for every entry that follows.
tested on: HS-Sch-2; test: relative IC50 (inflection point of fitted dose-response curve, CellTiter-Glo viability, 72 h; top asymptote may be below 50% inhibition); higher = less potent
Give bare numbers, in nM.

Record excerpt, results attached:
compound | unitSpec | relative IC50
CC(=O)OC[C@H]1O[C@@H]([S-])[C@H](OC(C)=O)[C@@H](OC(C)=O)[C@@H]1OC(C)=O.CCP(CC)CC.[Au+] [Auranofin] | nM | 362
CC(=O)O[C@H]1C(=O)[C@@]2(C)[C@H]([C@H](OC(=O)c3ccccc3)[C@]3(O)C[C@H](OC(=O)[C@H](O)[C@@H](NC(=O)c4ccccc4)c4ccccc4)C(C)=C1C3(C)C)[C@]1(OC(C)=O)CO[C@@H]1C[C@@H]2O [Paclitaxel] | nM | 8.71

(Q) What relative IC50 value was documented for this compound, COc1c(C)cnc(Cn2cnc3c(Cl)nc(N)nc32)c1C [BIIB021] ?
(A) 95.1

====

test system: HS-PSS; test: drug sensitivity score (DSS, CellTiter-Glo viability, 72 h) (DSS (dimensionless)); higher = more sensitive; extreme values may be limits of the assay
endpoint: drug sensitivity score
Give bare numbers.

compound | endpoint | endpointValue
CC(C)[C@H](C(=O)Nc1ccc(C(=O)NO)cc1)c1ccccc1 [AR-42] (max concentration tested 10000 nM) | drug sensitivity score | 10
Cc1cc2c(C(C)C)c(O)c(O)c(C=O)c2c(O)c1-c1c(C)cc2c(C(C)C)c(O)c(O)c(C=O)c2c1O [AT 101] (max concentration tested 100000 nM) | drug sensitivity score | 9.43
C[C@@]1(C(=O)Nc2ccc(F)nc2)CCCN1c1nc(Nc2cc(C3CC3)n[nH]2)c2cccn2n1 (max concentration tested 10000 nM) | drug sensitivity score | 7.91

Can you give me drug sensitivity score for all of these, one by one?
1. Cc1cc(Nc2cc(CN3CCOCC3)c3nc(C)c(Cc4ccc(Cl)cc4F)n3n2)n[nH]1 [Gandotinib] (max concentration tested 10000 nM)
2. Cc1ccccc1C(C(=O)NC1CCCCC1)N(C(=O)Cn1ccnc1C)c1cccc(F)c1 (configuration not stated) [AGI-5198] (max concentration tested 10000 nM)
3. CN1CCN(C2CCN(C(=O)Nc3cc(Oc4ccc(NC(=O)C5(C(=O)Nc6ccc(F)cc6)CC5)c(F)c4)ccn3)CC2)CC1 [Golvatinib] (max concentration tested 2500 nM)
4. CC(=O)O[C@H]1C(=O)[C@@]2(C)[C@H]([C@H](OC(=O)c3ccccc3)[C@]3(O)C[C@H](OC(=O)[C@H](O)[C@@H](NC(=O)c4ccccc4)c4ccccc4)C(C)=C1C3(C)C)[C@]1(OC(C)=O)CO[C@@H]1C[C@@H]2O [Paclitaxel] (max concentration tested 1000 nM)
5. Cn1c(Nc2ccc(C(F)(F)F)cc2)nc2cc(Oc3ccnc(-c4ncc(C(F)(F)F)[nH]4)c3)ccc21 [RAF265] (max concentration tested 1000 nM)
6. CCS(=O)(=O)c1cccc(-c2cc(C(=O)NC3CCN(C)CC3)c(C)c3[nH]c4ncc(C)cc4c23)c1 [TAK-901] (max concentration tested 1000 nM)
7. Oc1ncnc2[nH]ncc12 [Allopurinol] (max concentration tested 10000 nM)
8. Cn1cc(C2=C(c3cn(C4CCN(Cc5ccccn5)CC4)c4ccccc34)C(=O)NC2=O)c2ccccc21 [Enzastaurin] (max concentration tested 10000 nM)

(A)
7.29
0.2
0.68
12.2
4.44
5.46
0
3.43

(Q) Query the reported drug sensitivity score for HS-PSS; item: Cc1sc2c(c1C)C(c1ccc(Cl)cc1)=N[C@@H](CC(=O)OC(C)(C)C)c1nnc(C)n1-2 [JQ1] (max concentration tested 10000 nM)
(A) 10
